System: MDA-MB-231
Experiment: cells
Conditions: Homo sapiens, MDA-MB-231, 72 h
Measurement Kind: pIC50
Please note pIC50 is a logarithmic value: minus log10 of concentration in mol/L. Answer with that number alone.

Identify pIC50 associated with the compound CC[C@H](C)n1cc(C)c2c(C(=O)NCc3c(C)cc(C)[nH]c3=O)cc(-c3ccc(N4CCNCC4)nc3)cc21 [GSK2816126]
5.20
